- tested-system: T1, mTfR-1 S197A on Expi293 cells (mouse, UniProt Q62351 1-763)
- T1 construct: whole, on cells
- T1 sequence (Q62351 whole entry S197A): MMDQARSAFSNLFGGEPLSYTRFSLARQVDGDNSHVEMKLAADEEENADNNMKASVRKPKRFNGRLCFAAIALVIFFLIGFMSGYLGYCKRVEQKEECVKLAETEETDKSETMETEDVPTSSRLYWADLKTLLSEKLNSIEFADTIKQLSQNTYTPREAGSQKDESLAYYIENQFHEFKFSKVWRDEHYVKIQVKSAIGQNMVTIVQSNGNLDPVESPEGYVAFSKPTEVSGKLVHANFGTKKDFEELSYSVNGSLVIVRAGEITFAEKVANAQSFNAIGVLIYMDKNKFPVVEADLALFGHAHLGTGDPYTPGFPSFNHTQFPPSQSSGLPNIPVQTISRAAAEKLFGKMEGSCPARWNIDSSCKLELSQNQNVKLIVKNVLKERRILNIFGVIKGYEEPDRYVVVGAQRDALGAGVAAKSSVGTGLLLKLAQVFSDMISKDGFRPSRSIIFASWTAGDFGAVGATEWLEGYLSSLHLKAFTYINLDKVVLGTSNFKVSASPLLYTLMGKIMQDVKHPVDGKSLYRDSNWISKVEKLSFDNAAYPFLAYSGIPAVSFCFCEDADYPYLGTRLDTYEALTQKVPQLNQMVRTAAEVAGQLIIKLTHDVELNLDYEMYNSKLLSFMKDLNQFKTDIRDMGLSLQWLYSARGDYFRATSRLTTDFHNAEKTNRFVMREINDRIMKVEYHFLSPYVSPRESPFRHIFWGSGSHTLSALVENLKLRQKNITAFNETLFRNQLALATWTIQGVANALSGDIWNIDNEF
- test: FACS, transfected Expi293 cells

>  <binder>
8D3 antibody (anti-mouse TfR-1 control; 8D3-hFc formatted antibody) (antibody, V domains shown) VH: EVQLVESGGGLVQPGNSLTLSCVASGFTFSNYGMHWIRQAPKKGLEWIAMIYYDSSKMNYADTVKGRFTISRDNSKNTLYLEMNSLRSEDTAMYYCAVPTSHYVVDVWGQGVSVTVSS VL: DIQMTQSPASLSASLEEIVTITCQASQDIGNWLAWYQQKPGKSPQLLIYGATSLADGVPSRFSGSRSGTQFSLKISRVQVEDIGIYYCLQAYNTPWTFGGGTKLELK

>  <% double-positive cells vs WT>
100%

$$$$
>  <binder>
Clone C VNAR-hFc fusion (Fc fusion, not shown: a dimerising Fc or GST, bivalent VNAR-Fc; also called Clone C-hFc) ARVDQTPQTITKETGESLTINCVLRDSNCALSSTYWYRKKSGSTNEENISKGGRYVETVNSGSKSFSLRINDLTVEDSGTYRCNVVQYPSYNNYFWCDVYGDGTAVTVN

>  <% double-positive cells vs WT>
111%

$$$$
>  <binder>
Clone C variant 18 VNAR-hFc (Fc fusion, not shown: a dimerising Fc or GST, also called Clone C v18; Clone C var; 18) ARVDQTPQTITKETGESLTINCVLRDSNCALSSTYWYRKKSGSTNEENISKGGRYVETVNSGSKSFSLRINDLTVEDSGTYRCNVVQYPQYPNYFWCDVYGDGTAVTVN

>  <% double-positive cells vs WT>
66%

$$$$
>  <binder>
Clone C variant 13 VNAR-hFc (Fc fusion, not shown: a dimerising Fc or GST, also called Clone C v13; Clone C var; 13) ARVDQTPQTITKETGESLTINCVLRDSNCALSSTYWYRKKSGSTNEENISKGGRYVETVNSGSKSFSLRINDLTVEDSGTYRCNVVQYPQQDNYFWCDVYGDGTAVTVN

>  <% double-positive cells vs WT>
56%

$$$$
